Protocol: label from the status in PepcDB records

Seq Text: MATEIGSPPRFFHMPRFQHQAPRQLFYKRPDFAQQQAMQQLTFDGKRMRKAVNRKTIDYNPSVIKYLENRIWQRDQRDMRAIQPDAGYYNDLVPPIGMLNNPMNAVTTKFVRTSTNKVKCPVFVVRWTPEGRRLVTGASSGEFTLWNGLTFNFETILQAHDSPVRAMTWSHNDMWMLTADHGGYVKYWQSNMNNVKMFQAHKEAIREASFSPTDNKFATCSDDGTVRIWDFLRCHEERILRDTCFHHCRCYFLSVKR
protein production: failed
//
Seq Text: MLYPSKPNNEALRIQTLRELNVLDTSPEERFDRLTRLAKRLFNVPIALVSLVDADRQWFKSCVGLDVSETSRDISFCGHAILGDQILTVPDAGLDERFHDNPLVVGAPGIRFYAGCPLTVTNGSKLGTLCLIDIKPRDLDDEDRALLRDLARMAEQELAAVQMASMDELTLLSNRRGFEALARHALGVCKRLEKPATLLFFDLNDFKQINDTYGHAEGDGALKTFADVLRIAFRESDVIGRLGGDEFVALLTAADHVETSAIMARLREILDERNATLKRGYDIRFSVGQIEYDAERHPDIEALLADADKAMYLHKQASKRARLEHHHHHH
protein production: failed
